Numbers sourced from the supplement of paper PMC10567573.

B1: TRIM43 (parent)
chain: FCDMDKSLLCLLCSNSQEHGAHKH

Variants of: B1
TEST_DESCRIPTION: protein stability index of a GFP-peptide fusion (GPS, HEK-293T) (PSI 1-6); higher = more stable;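 also: lentivirally expressed fusions sorted by FACS into six bins by GFP to DsRed ratio, PSI derived from sequencing read proportions per bin multiplied by bin number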
TEST_PARAMETERS: c terminus: a fixed tail appended
# maps each entry to its protein stability index

- ALTERATION: "S14N"
  protein stability index: 2.01
- ALTERATION: "M4N"
  protein stability index: 1.85
- ALTERATION: "A21Y"
  protein stability index: 1.48
- ALTERATION: "K23I"
  protein stability index: 2.17
- ALTERATION: "C10N"
  protein stability index: 1.83
- ALTERATION: "A21L"
  protein stability index: 1.97
- ALTERATION: "Q17L"
  protein stability index: 1.63
- ALTERATION: "S7F"
  protein stability index: 2.72
- ALTERATION: "L9W"
  protein stability index: 1.55
- ALTERATION: "S14M"
  protein stability index: 1.85
- ALTERATION: "K23S"
  protein stability index: 2.25
